# Lookup of reported pIC50 keyed by entry
# measurementTarget: C-Raf kinase (SEQ. ID NO: 3) (Homo sapiens (Human), UniProt P04049, Y340D/Y341D)
# Sequence (P04049 307-648 Y340D/Y341D): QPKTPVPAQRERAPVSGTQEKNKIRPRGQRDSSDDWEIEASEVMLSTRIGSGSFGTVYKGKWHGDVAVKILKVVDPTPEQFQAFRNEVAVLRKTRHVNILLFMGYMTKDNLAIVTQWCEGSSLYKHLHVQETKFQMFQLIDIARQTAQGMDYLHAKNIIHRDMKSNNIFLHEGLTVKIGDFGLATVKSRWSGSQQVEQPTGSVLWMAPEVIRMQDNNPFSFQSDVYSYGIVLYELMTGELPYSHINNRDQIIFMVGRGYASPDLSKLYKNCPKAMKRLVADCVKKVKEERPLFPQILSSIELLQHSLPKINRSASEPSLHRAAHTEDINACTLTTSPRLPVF
# experimentSummary: Biochemical Assay for C-Raf (1)
# testSettings: Table J, assay version (1); read-out: CRAF (1) IC50
pIC50: −log10 of the molar value.

Example cases with answers are listed next.
[
  {
    "smilesRecord": "CC(C)(C#N)c1cc(C(=O)Nc2ccc(C#N)c(-c3cccc(-c4cc(NC(=O)C5CC5)ncn4)c3)c2)ccn1",
    "pIC50": "≥ 7.00"
  },
  {
    "smilesRecord": "CNC(=O)c1cc(-c2cc(-c3cc(NC(=O)c4cnnc(C5CC5)c4)ccc3C)ccn2)ccn1",
    "pIC50": "≥ 7.00"
  },
  {
    "smilesRecord": "Cc1ncc(NC(=O)CC2COC2)cc1-c1nccc(-c2ccnc(NC(=O)C3CC3)c2)n1",
    "pIC50": "5.00 to 6.00"
  }
]

Then there is this molecule:
Q. Request the reported pIC50 associated with CC(=O)Nc1cc(-c2cc(-c3cc(NC(=O)c4ccnc(C(F)(F)F)c4)ccc3C)cc(C)n2)ccn1
A. ≥ 7.00
